Tested on: HCT-15 colon
Assay: NCI tumour cell line growth inhibition, 48 h
Would you mind telling me the reported GI50 of each entry?

O=C(N1CCC(CN=c2cc3n(-c4ccc(Cl)cc4)c4ccccc4nc-3cc2Nc2ccc(Cl)cc2)CC1)N1CC1; 0.512 µM
COC(=O)c1cc2c3ccccc3n3c(=O)c4cc5cc(OC)c(N(S(=O)(=O)c6ccc(C)cc6)S(=O)(=O)c6ccc(C)cc6)cc5nc4c(n1)c23; > 100 µM

// batch mode: one GI50 value per listed entry
1. O=C(Nc1ccc(Cl)cc1)c1ccc([N+](=O)[O-])o1
2. O=C(Nc1cccnc1)c1cccc([N+](=O)[O-])c1
3. COc1ccc(/C(=N\O)c2cc(OC)c(OC)c(OC)c2)c(OC)c1N
4. NC(N)=N/N=C(/c1ccccc1)c1ccc(Cl)cc1

Given back:
["1.48 µM", "> 100 µM", "2.64 µM", "5.8 µM"]

---

Test system: NCI-H226 lung
Test: NCI tumour cell line growth inhibition, 48 h
quantityKind: TGI

Use these answered entries as a reference point.
N#CCCN(CCC#N)c1ccc(/C=N\c2nc(-c3ccccc3)cs2)cc1; > 100 µM
CC1C=CC(C)C2(O)C(=O)NC(O)C12 (stereo unspecified); > 100 µM
COc1cc(Nc2ncc3c(C)nc(-c4cccc(Oc5ccccc5)c4)n3n2)cc(OC)c1OC; > 25 µM
O=C1N(CN2CCOCC2)CN(CN2CCOCC2)C(=O)N1Cc1ccccc1; > 100 µM
O=C1OC2c3ccccc3C(=O)C2(c2ccccc2)N1c1ccccc1 (stereo unspecified); > 200 µM
CNC(=O)c1n[nH]n(Cc2ccccc2)c1=S; > 100 µM
COc1ccc(/C=C(\C(=O)OCC(C)C)c2ccc(OC)c(OC)c2)cc1OC; > 100 µM
O=C1Nc2ccccc2/C1=C/c1cn(C(=O)c2c(Cl)cccc2Cl)c2ccccc12; 27 µM

// batch mode: one TGI value per listed entry
1. COc1cc(C(=O)N2CCN(c3ccccc3OC)CC2)c(N)cc1OCc1ccccc1
2. CCCC(=O)/C=C/S/C=C/C(=O)CCC

Given back:
["> 100 µM", "17.9 µM"]

Value of measured TGI for the entry `Cn1c(=O)c2nc3nnc(C#N)c(N)n3c2n(C)c1=O` : > 100 µM

---

Would you mind telling me the reported TGI of each entry?
Tested on: KM12 colon
Experiment: NCI tumour cell line growth inhibition, 48 h

NC1=NN(c2ccccc2)C2(c3ccncc3C(=O)O)C1C(N)=NN2c1ccccc1 (stereo not given); > 100 µM
Cc1ccc(NC(=O)C(=O)C2NC(=S)NC2=O)c([N+](=O)[O-])c1 (stereo not given); > 100 µM
COc1ccc(N(C)c2nc(Cl)nc3ccn(C)c23)cc1; > 100 µM
O=C(Nc1cccnc1)c1cccc([N+](=O)[O-])c1; > 100 µM
CC1C2(C)OC(=N)C(C#N)(C(c3ccco3)O2)C1(C#N)C#N (stereo not given); > 100 µM
O=C(O)CSc1nnc(CCCCCCCCc2nnc(SCC(=O)O)o2)o1; > 100 µM
Cc1[nH]n(-c2ccc(S(=O)(=O)O)cc2)c(=O)c1N=Nc1ccccc1; > 100 µM
N#Cc1c(-c2ccc(Cl)cc2)c(-c2ccc(Cl)cc2)nn(CCOC(=O)CCC(=O)O)c1=O; 71.2 µM
COc1ccc(C(=O)/C=C/c2ccc(OCC(=O)O)cc2)cc1; > 100 µM
N#Cc1c(NC(=O)c2cccc3ccccc23)sc2c1CCCC2; > 25 µM

// batch mode: one TGI value per listed entry
1. Cn1c(=O)c2c(ncn2CCSS(=O)(=O)O)n(C)c1=O
2. c1cc2cc(c1)CN1CCNCCN(CCNCC1)Cc1cccc(c1)CN1CCNCCN(CCNCC1)C2
3. COP(=O)(OC)C(O)/C=C(\Cl)c1ccc(Cl)cc1 (stereo not given)
4. Cn1c(=O)c2nc3nnc(C#N)c(N)n3c2n(C)c1=O
5. COc1cc(C2CC(c3ccc(Nc4ccnc5cc(Cl)ccc45)cc3)=NN2C=O)cc(OC)c1OC (stereo not given)
6. O/N=C1/CCCCCC1NO (stereo not given)
7. N#CCC12CC=CCC1=C(O)C(=O)c1ccc(O)cc12 (stereo not given)
8. Cc1cc(Cl)ccc1NC(=O)CC1SC(N)=NC1=O (stereo not given)

Given back:
["> 100 µM", "> 100 µM", "> 100 µM", "> 100 µM", "> 100 µM", "> 100 µM", "> 100 µM", "> 100 µM"]

// batch mode: one TGI value per listed entry
1. Cc1ccc(/C=C/C(=O)c2ccc(N)cc2)c(C)c1
2. COc1ccc(-c2oc3cc(OC)c(OC)c(OC)c3c(=O)c2OC)cc1OC

Given back:
16.8 µM
> 100 µM
